These entries and their values trace back to PubChem BioAssay AID588453.

Biological target: Thioredoxin reductase 1, cytoplasmic (Rattus norvegicus)
Assay: qHTS Assay for Inhibitors of Mammalian Selenoprotein Thioredoxin Reductase 1 (TrxR1): qHTS; also: nearly all actives have a fitted effect of over 65% in size
Details: recombinant rTrxR1, NADPH fluorescence consumption, selenite substrate; series mostly up to 114 µM
Hit rate of the full screen: of about 390,000 compounds, about 4,000 (1%) were called active. Roughly 4% stayed inconclusive and do not appear here. Calls follow the shape of the dose curve; as a rule, active = well fitted inhibition curve with a large enough effect; inconclusive = small, poorly fitted or top-dose-only effect; inactive = no such curve, though single readings can be large or run the other way. Shown is part of a subset that was picked to be rich in actives.
Hi there, use one of these labels in your reply, thanks! active, inactive

Some solved cases for reference:
molecule="CCCc1[nH]nc2c1C(c1ccc(Br)s1)C(C#N)=C(N)O2 (stereo unspecified)" group=active
molecule=CSc1oc(-c2cccs2)nc1S(=O)(=O)c1ccc(Br)cc1 group=inactive
molecule="Cc1ccc(CCNC(=O)c2ccc3c(c2)N(Cc2cc(C)ccc2C)C(=O)c2ccccc2S3=O)cc1 (stereo unspecified)" group=inactive
molecule=NC(=O)CSc1oc(-c2cccs2)nc1S(=O)(=O)c1ccccc1 group=inactive
molecule="CCCc1nc2c([nH]1)C(c1cccnc1)C(C#N)=C(N)O2 (stereo unspecified)" group=inactive

Okay, now this molecule:
[in] What outcome does the record of this test show for NC1CCN(O)C1=O (stereo unspecified) ?
[out] inactive

###

Target: Thioredoxin reductase 1, cytoplasmic (Rattus norvegicus) (UniProt O89049)
Sequence (O89049 whole entry, looked up): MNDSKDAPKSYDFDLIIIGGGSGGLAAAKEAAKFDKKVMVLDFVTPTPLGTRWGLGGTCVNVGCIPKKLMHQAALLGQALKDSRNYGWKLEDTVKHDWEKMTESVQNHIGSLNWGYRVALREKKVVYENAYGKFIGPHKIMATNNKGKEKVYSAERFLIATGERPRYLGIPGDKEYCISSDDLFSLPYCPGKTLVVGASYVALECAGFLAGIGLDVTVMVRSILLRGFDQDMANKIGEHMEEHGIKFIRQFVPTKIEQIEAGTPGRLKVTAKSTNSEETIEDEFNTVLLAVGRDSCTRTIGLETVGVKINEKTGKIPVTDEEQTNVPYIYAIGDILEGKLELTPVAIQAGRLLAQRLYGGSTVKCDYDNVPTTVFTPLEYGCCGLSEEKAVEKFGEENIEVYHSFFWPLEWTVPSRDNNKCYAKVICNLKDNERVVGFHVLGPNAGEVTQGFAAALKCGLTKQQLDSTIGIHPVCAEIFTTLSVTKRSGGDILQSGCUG
Assay: qHTS Assay for Inhibitors of Mammalian Selenoprotein Thioredoxin Reductase 1 (TrxR1): qHTS; also: nearly all actives have a fitted effect of over 65% in size
Conditions: recombinant rTrxR1, NADPH fluorescence consumption, selenite substrate; series mostly up to 114 µM
The campaign covered roughly 390,000 compounds. About 4,000 (1%) were called active. Another 4% or so got no clear call; they are omitted. Calls follow the shape of the dose curve; as a rule, active = well fitted inhibition curve with a large enough effect; inconclusive = small, poorly fitted or top-dose-only effect; inactive = no such curve, though single readings can be large or run the other way. Many of the other results were omitted from the sample, so actives are more common in it than they were.
Hi there, use one of these labels in your reply, thanks! active, inactive

Some solved cases for reference:
compound=Nc1ccc(/C=C/c2ccnc3ccccc23)c([N+](=O)[O-])c1 assayed_system="Thioredoxin reductase 1, cytoplasmic (Rattus norvegicus) (UniProt O89049)" group=inactive
compound="Cc1ccc(CN(C(=O)COc2ccc(Cl)cc2C)C2CCS(=O)(=O)C2)o1 (configuration not stated)" assayed_system="Thioredoxin reductase 1, cytoplasmic (Rattus norvegicus) (UniProt O89049)" group=inactive
compound=COc1ccc(C(=O)COC(=O)COc2ccc(C)c(C)c2)cc1 assayed_system="Thioredoxin reductase 1, cytoplasmic (Rattus norvegicus) (UniProt O89049)" group=inactive

[in] What outcome does the record of this test show for "O=C(/C=C/c1ccc([N+](=O)[O-])o1)NNC(=O)c1ccc(F)cc1" ?
[out] active

[in] What outcome does the record of this test show for CC1=C(C)CC2C(=O)N(c3cccc4ccccc34)C(=O)C2C1 (configuration not stated) ?
[out] active

###

Target: Thioredoxin reductase 1, cytoplasmic (Rattus norvegicus)
Test: qHTS Assay for Inhibitors of Mammalian Selenoprotein Thioredoxin Reductase 1 (TrxR1): qHTS; also: nearly all actives have a fitted effect of over 65% in size
Conditions: recombinant rTrxR1, NADPH fluorescence consumption, selenite substrate; series mostly up to 114 µM
About 4,000 (1%) of roughly 390,000 compounds were called active. Inconclusive results (about 4%) are left out. The call rests on the fitted dose curve; in most records, active means well fitted inhibition curve with a large enough effect; inconclusive means small, poorly fitted or top-dose-only effect; inactive means no such curve, though single readings can be large or run the other way. The sample as a whole holds a higher share of actives than the screen did.
Hi there, use one of these labels in your reply, thanks! 1 = active, 0 = inactive

[in] What outcome does the record of this test show for "Cc1cccc(-n2ncc(Cl)c(Cl)c2=O)c1" ?
[out] 1

[in] What outcome does the record of this test show for "CCOc1ccc(N2C(=O)/C(=C/c3ccc(C)o3)N(C)C2=S)cc1" ?
[out] 1

[in] What outcome does the record of this test show for "COc1ccc(C)cc1-n1c(-c2ccc(C)cc2)cc2c1CC(C)(C)CC2=O" ?
[out] 0
